Assignment: determine reported MIC for the given compounds.

Incoming: Form: Entry = OC(Cn1cnnn1)(c1ccc(F)cc1F)C(F)(F)c1ccc(OCc2ccnc(Cl)c2)cn1 (stereo not shown) | System = Septoria tritici (ATCC 26517) | MIC = ____
Outgoing: ≤ 0.5 µg/mL

Incoming: Form: Entry = N#Cc1cccc(COc2ccc(C(F)(F)C(O)(Cn3ncnn3)c3ccc(F)cc3F)nc2)c1F (stereo not shown) | System = Septoria tritici (ATCC 26517) | MIC = ____
Outgoing: 1.5 to 4 µg/mL

Incoming: Form: Entry = OC(Cn1cnnn1)(c1ccc(F)cc1F)C(F)(F)c1ccc(OCc2cc(F)cc(F)c2)cn1 (stereo not shown) | System = Septoria tritici (ATCC 26517) | MIC = ____
Outgoing: ≤ 0.5 µg/mL

Incoming: Form: Entry = OC(Cn1cnnn1)(c1ccc(F)cc1F)C(F)(F)c1ccc(OCc2cccc(C(F)(F)F)c2)cn1 (stereo not shown) | System = Septoria tritici (ATCC 26517) | MIC = ____
Outgoing: ≤ 0.5 µg/mL

Incoming: Form: Entry = CC(C)Oc1ccc(C(F)(F)C(O)(Cn2cnnn2)c2ccc(F)cc2F)nc1 (stereo not shown) | System = Septoria tritici (ATCC 26517) | MIC = ____
Outgoing: 0.5 to 1.5 µg/mL

Incoming: Form: Entry = N#Cc1ccc(CSc2ccc(C(F)(F)C(O)(Cn3cnnn3)c3ccc(F)cc3F)nc2)c(F)c1 (stereo not shown) | System = Septoria tritici (ATCC 26517) | MIC = ____
Outgoing: ≤ 0.5 µg/mL

Incoming: Form: Entry = OC(Cn1cnnn1)(c1ccc(F)cc1F)C(F)(F)c1ccc(Oc2ncc(C(F)(F)F)cc2F)cn1 (stereo not shown) | System = Septoria tritici (ATCC 26517) | MIC = ____
Outgoing: ≤ 0.5 µg/mL

Incoming: Form: Entry = N#Cc1ccc(COc2ccc(C(F)(F)C(O)(Cn3cnnn3)c3ccc(F)cc3F)nc2)cc1F (stereo not shown) | System = Septoria tritici (ATCC 26517) | MIC = ____
Outgoing: ≤ 0.5 µg/mL

Incoming: Form: Entry = N#Cc1ccc(Oc2ccc(C(F)(F)C(O)(Cn3cnnn3)c3ccc(F)cc3F)nc2)cn1 (stereo not shown) | System = Septoria tritici (ATCC 26517) | MIC = ____
Outgoing: ≤ 0.5 µg/mL

Incoming: Form: Entry = OC(Cn1cnnn1)(c1ccc(F)cc1F)C(F)(F)c1ccc(Oc2ccccc2F)cn1 (stereo not shown) | System = Septoria tritici (ATCC 26517) | MIC = ____
Outgoing: ≤ 0.5 µg/mL
